From: patent US4337252A

test system: reserpine-induced blepharospasm; assay: Reserpine antagonism (blepharospasm); format: in vivo, Male, Swiss strain mice; conditions: mice, IP, 1/10 of LD50, 30 min before reserpine 5 mg/kg IP; class symbols
TEST READOUT: Blepharospasm (inhibition of reserpine-induced blepharospasm)

Before answering, review these 5 worked examples.
# MOLECULE, DATA VALUE
measured = [
    ("OC(C=Cc1ccc(Cl)cc1)CN1CCOCC1 (stereo not drawn)", "+++ (inhibition >45%)"),
    ("C#CCOc1ccc(C=CC(O)CN2CCOCC2)cc1 (stereo not drawn)", "++ (inhibition 26-45%)"),
    ("COc1ccc(C=CC(O)CN2CCOCC2)cc1 (stereo not drawn)", "+++ (inhibition >45%)"),
    ("Oc1ccc(C=CC(O)CN2CCOCC2)cc1 (stereo not drawn)", "++ (inhibition 26-45%)"),
    ("OC(C=Cc1ccc(F)cc1)CN1CCOCC1 (stereo not drawn)", "++ (inhibition 26-45%)"),
]

Could you now look at the following molecule, please?
Form field - read-out: Blepharospasm (inhibition of reserpine-induced blepharospasm); system: reserpine-induced blepharospasm; submitted item: C=CCOc1ccc(C=CC(O)CN2CCOCC2)cc1 (stereo not drawn)
++ (inhibition 26-45%)
